Entries and their CC50 at 1 day values follow.
protocol-notes: Quantitative cytotoxicity in Vero cells, crystal violet staining of EC50 plates
condition-notes: African green monkey

COC(=O)c1c(C)cc(O)c(=O)c(O)c1Br [Compound 335] | > 120 µM
C/C(=N\c1ccc(Cl)c(Cl)c1)c1c(C)cc(O)n(O)c1=O [Compound 670] | > 120 µM
Cc1cc(O)c(=O)c(O)cc1C(=O)NCc1ccccc1 [Compound 388] | 239 µM
CSc1cccc(O)c(=O)c1O [Compound 385] | > 250 µM
Cc1cc(O)c(=O)c(O)cc1C(=O)c1ccccc1O [Compound 311] | > 250 µM
Cc1ccc(O)c(=O)c(O)c1 [Compound 210] | 283 µM
Cc1cc(O)c(=O)c(O)cc1C(=O)C1CCCCC1 [Compound 120] | > 250 µM

Alright, here's another compound for you.
Ask | I would be grateful if you could share the reported CC50 at 1 day for Cc1cc(O)c(=O)c(O)c(O)c1C(=O)c1ccc(-c2ccccc2)cc1 [Compound 362] .
Reply | 77.8 µM

----------
Entries and their CC50 values follow.
protocol-notes: in vitro
condition-notes: African green monkey

Cc1cc(O)c(=O)c(O)cc1C(=O)Nc1cccc(OCc2ccccc2)c1 | ≥ 120 µM

Ask | I would be grateful if you could share the reported CC50 for `Cc1ccc(O)c(=O)c(O)c1` .
Reply | ≥ 120 µM

Ask | I would be grateful if you could share the reported CC50 for `COc1ccc(Cl)cc1C(=O)Sc1cccccc1=O` .
Reply | 2 µM

Ask | I would be grateful if you could share the reported CC50 for `C/C(=N\c1ccccc1Cl)c1c(C)cc(O)n(O)c1=O` .
Reply | ≥ 120 µM

Ask | I would be grateful if you could share the reported CC50 for Cc1cc(O)c(=O)c(O)cc1C(=O)NC(CCC(=O)OC(C)(C)C)C(=O)OC(C)(C)C (centres unmarked) .
Reply | ≥ 120 µM

----------
protocol-notes: Cytotoxicity in HepDES19 cells, MTS assay
condition-notes: human, HepDES19 cells (HepG2-derived hepatoblastoma cell line)
Param label: returns fulfilled when CC50 at 3 days < 20 µM, returns not fulfilled otherwise, including exact equality.

COC(=O)c1c(C)cc(O)c(=O)c(O)c1O | fulfilled

Ask | hey, is CC50 at 3 days for `Cc1cc(O)c(=O)c(O)cc1C(=O)N1CCCCC1` lower than 20 µM or not?
Reply | not fulfilled

Ask | hey, is CC50 at 3 days for `Cc1cc(O)c(=O)c(O)cc1C(=O)c1ccc(Br)cc1` lower than 20 µM or not?
Reply | fulfilled

Ask | hey, is CC50 at 3 days for `Cc1cc(O)c(=O)c(O)cc1C(=O)NCc1ccc(-c2ccccc2)cc1` lower than 20 µM or not?
Reply | fulfilled

Ask | hey, is CC50 at 3 days for `Cc1cc(O)c(=O)c(O)cc1C(=O)c1ccc(-c2ccncc2)cc1` lower than 20 µM or not?
Reply | not fulfilled

Ask | hey, is CC50 at 3 days for `Cc1cc(O)c(=O)c(O)cc1C(=O)Nc1ccccc1` lower than 20 µM or not?
Reply | not fulfilled

Ask | hey, is CC50 at 3 days for `O=C1C=CC(=O)c2ccccc21` lower than 20 µM or not?
Reply | fulfilled

----------
Please consider the recorded CC50 for Vero cells in what follows.

// known answers, use as guide
CCc1cccc(N=C(C)c2c(C)cc(=O)n(O)c2O)c1 [Compound 518] | ≥ 120 µM
CC[C@H](C)[C@H](NC(=O)OCC1c2ccccc2-c2ccccc21)C(=O)Sc1cccccc1=O [Compound 686] | ≥ 120 µM

Alright, here's another compound for you.
Ask | I would be grateful if you could share the reported CC50 for O=C(Cc1ccccc1)Sc1cccccc1=O [Compound 680] .
Reply | 0.9 µM
